target: Voltage-gated potassium channel subunit beta-2 (Rattus norvegicus) (UniProt P62483); experiment: enhancers of rat Kvbeta2 NADPH turnover – biochemical, NADPH fluorescence, primary screen (AID 623); conditions: Recombinant KvBeta, NADPH fluorescence decrease slope, 10 min; at 10 µM; stronger effect = lower value;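 also: fluorescence intensity change per second fitted from 20 to 320 s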
Sequence (P62483 whole entry, looked up): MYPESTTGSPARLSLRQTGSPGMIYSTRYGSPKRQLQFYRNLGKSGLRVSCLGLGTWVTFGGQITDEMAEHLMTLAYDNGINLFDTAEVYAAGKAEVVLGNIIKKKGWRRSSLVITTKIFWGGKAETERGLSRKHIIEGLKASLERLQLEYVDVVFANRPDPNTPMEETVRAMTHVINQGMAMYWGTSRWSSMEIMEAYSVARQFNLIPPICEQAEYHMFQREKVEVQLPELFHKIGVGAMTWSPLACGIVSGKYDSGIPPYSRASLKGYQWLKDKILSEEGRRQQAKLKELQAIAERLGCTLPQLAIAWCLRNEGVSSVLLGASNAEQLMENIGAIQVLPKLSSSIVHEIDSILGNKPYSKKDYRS
EXPERIMENTAL ENDPOINT: NADPH fluorescence slope
A bare number is all that is needed in reply.

* CCCCc1c(O)nc(SCC(=O)c2ccccc2)[nH]c1=O | -8.5e-05
* O=C(Nc1nncs1)c1ccccc1NS(=O)(=O)c1cccs1 | -1.1e-05
* O=C(Nc1ccc2c(c1)OCO2)C1CCCN1C(=O)Nc1ccccc1F (stereo unspecified) | 3.8e-05

Consider the compound COC(=O)c1ccc(NC(=O)CN2C(=O)CSC2=O)cc1 and give its recorded NADPH fluorescence slope.
-3e-05

Consider the compound Cc1cc(C(C)(C)C)c(O)c(C)c1CC1=NCCN1 and give its recorded NADPH fluorescence slope.
-2.8e-05

Consider the compound NC(=O)c1ccccc1OCCOCCOCCOc1ccccc1C(N)=O and give its recorded NADPH fluorescence slope.
-3.2e-05

* * *

molecular target: Voltage-gated potassium channel subunit beta-2 (Rattus norvegicus); experiment: inhibitors of rat Kvbeta2 reductase activity – biochemical, NADPH fluorescence, primary screen (AID 622); conditions: recombinant KvBeta, 4-cyanobenzaldehyde reduction, at 10 µM, stronger effect = higher value;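 also: slope of raw intensity against log time taken from 70 to 1610 s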
Reported fluorescence slope values follow for various compounds
A bare number is all that is needed in reply.

Below, each entry is followed by its recorded fluorescence slope result.
- COc1ccc(N2CCN(C(=O)CN3C(=O)C4CC=CCC4C3=O)CC2)cc1 (stereo unspecified): -0.575
- CCOC(=O)c1cccc(NC(=O)CSc2nnc(-c3ccoc3C)n2CCOC)c1: -0.577
- Cc1ccc(S(=O)(=O)N2CCN(C(=O)CN3C(=O)NC4(CCOc5ccccc54)C3=O)CC2)cc1 (stereo unspecified): -0.44

Consider the compound O=C(NCc1ccc(F)cc1)c1cc(-c2ccco2)on1 and give its recorded fluorescence slope.
-0.46

Consider the compound COc1cc(NC(=O)Cc2nn(C)c(=O)c3ccccc23)cc(OC)c1 and give its recorded fluorescence slope.
-0.585

Consider the compound Cc1ccc2nc(SC(C)C(=O)N3CCCC3)[nH]c2c1 (stereo unspecified) and give its recorded fluorescence slope.
-0.478

Consider the compound O=c1[nH]c(=O)n([C@H]2C[C@H](O)[C@@H](CO)O2)cc1F and give its recorded fluorescence slope.
-0.533

Consider the compound CCn1c(=N)n(CC(=O)C23CC4CC(CC(C4)C2)C3)c2ccccc21 and give its recorded fluorescence slope.
-0.271

* * *

experiment: endothelial E-selectin expression blockers – imaging, HUVEC, immunofluorescence, MLSMR starter and 10KST1 sets, primary screen (AID 487); conditions: HUVEC TNFalpha-induced E-selectin immunofluorescence imaging, at 2 µM; measured here: cell number, toxicity;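 also: 100% = median nuclei count of all wells on the same plate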
Reported nuclei count values follow for various compounds

Consider the compound O=C(c1ccco1)N1CCN(C(=O)C2CCN(S(=O)(=O)c3cccc4nsnc34)CC2)CC1 and give its recorded nuclei count.
96.4%

Consider the compound Cn1c(=O)c2c(nc(SCC(=O)O)n2Cc2cccc(C(F)(F)F)c2)n(C)c1=O and give its recorded nuclei count.
74.6%

* * *

target: Muscarinic acetylcholine receptor M4 (Homo sapiens) (UniProt P08173); experiment: M4-linked GIRK flux change, two-sided – cell-based, HEK293 M4/GIRK, thallium flux, BTC-AM, M4 allosteric agonist project, primary screen (AID 625); settings: at 10 µM, actives lie on both sides;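 also: thallium influx through GIRK channels coupled to M4 in HEK293 cells with BTC-AM dye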
Sequence (P08173 whole entry, looked up): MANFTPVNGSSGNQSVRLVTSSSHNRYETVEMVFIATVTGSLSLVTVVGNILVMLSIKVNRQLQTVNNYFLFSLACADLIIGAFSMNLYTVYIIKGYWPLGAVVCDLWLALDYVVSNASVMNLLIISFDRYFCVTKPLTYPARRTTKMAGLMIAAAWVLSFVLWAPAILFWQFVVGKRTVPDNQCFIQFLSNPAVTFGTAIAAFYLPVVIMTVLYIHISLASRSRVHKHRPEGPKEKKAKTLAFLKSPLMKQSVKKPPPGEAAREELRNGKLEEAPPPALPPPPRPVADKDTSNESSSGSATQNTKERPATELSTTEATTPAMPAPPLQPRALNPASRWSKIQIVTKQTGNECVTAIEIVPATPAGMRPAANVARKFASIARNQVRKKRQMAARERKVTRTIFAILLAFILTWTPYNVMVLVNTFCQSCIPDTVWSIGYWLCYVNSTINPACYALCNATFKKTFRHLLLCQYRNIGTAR
Use 0.005 as the dividing line for fluorescence slope, with the line itself on the Y side and lower values as N.

* CN(Cc1ccccc1)Cc1nc2c([nH]1)c(=O)[nH]c(=O)n2C | Y
* O=C(NCCN1CCOCC1)c1csc2c1CCCC2 | Y

Test whether the compound COc1ccc(S(=O)(=O)n2ccnc2)c2cccnc12 records fluorescence slope of 0.005 or higher.
Y

Test whether the compound O=C(O)c1cnn2c1NC(c1ccc(F)cc1)CC2C(F)(F)F (configuration not stated) records fluorescence slope of 0.005 or higher.
Y

Test whether the compound C=CCn1c(SCc2ccc3nonc3c2)nnc1-c1cccs1 records fluorescence slope of 0.005 or higher.
N

Test whether the compound O=C(CN1C(=O)c2cccc3cccc1c23)Nc1ccccc1C(=O)NCc1ccco1 records fluorescence slope of 0.005 or higher.
Y

Test whether the compound CCc1nccn1S(=O)(=O)c1ccc2ccc(C)cc2c1 records fluorescence slope of 0.005 or higher.
N

Test whether the compound CCc1ccc(NS(=O)(=O)c2cccs2)cc1 records fluorescence slope of 0.005 or higher.
N

Test whether the compound CC1(C)CC(=O)C(C=N)=C(O)C1 records fluorescence slope of 0.005 or higher.
Y

Test whether the compound c1ccc(-c2csc(N3CCCCCC3)n2)cc1 records fluorescence slope of 0.005 or higher.
N

Test whether the compound O=C(CN1C(=O)c2cccc3cccc1c23)NCC1CCCO1 (configuration not stated) records fluorescence slope of 0.005 or higher.
N

* * *

test: Primary imaging screen for DUSP6 inhibitors that restore phospho-Erk in transfected HeLa cells, chemical complementation (AID 609); settings: HeLa MKP-3 transfected, phospho-Erk imaging KS statistic; measured here: nuclear c-Myc green intensity z-score; at 10 µM; cells stimulated with TPA for 15 min
Use -0.005 as the dividing line for z-score, with the line itself on the True side and lower values as False.

Use these answered entries as a reference point.
* CCn1cc(C(=O)O)c(=O)c2cnc(N3CCNCC3)nc21 | True
* O=C(Oc1oc(-c2ccco2)nc1C=Nc1ccccc1)c1ccoc1 | False
* CN1CC(=O)Nc2ccc(F)cc2C1=O | True

--- query ---
Test whether the compound CC1(C)O[C@@H]2C[C@H]3[C@@H]4C[C@H](F)C5=CC(=O)C=C[C@]5(C)[C@@]4(F)[C@@H](O)C[C@]3(C)[C@]2(C(=O)CO)O1 records z-score of -0.005 or higher.
False

* * *

assay: Primary imaging screen for DUSP6 inhibitors that restore phospho-Erk in transfected HeLa cells, chemical complementation (AID 609); conditions: HeLa MKP-3 transfected, phospho-Erk imaging KS statistic; measured here: nuclear c-Myc green intensity z-score; at 10 µM; cells stimulated with TPA for 15 min
Use -0.2 as the dividing line for z-score, with the line itself on the Y side and lower values as N.

Use these answered entries as a reference point.
* CCC1=Nc2ccccc2NC2=C1C(=O)CCC2 | Y
* O=C(CCN1CCc2ccccc2CC1)c1ccc2c(c1)OCCO2 | Y
* Fc1ccc(C(c2ccc(F)cc2)N2CCN(C/C=C/c3ccccc3)CC2)cc1 | Y
* Cc1cccc(CN2CCN(C(c3ccccc3)c3ccc(Cl)cc3)CC2)c1 (stereo not given) | N

--- query ---
Test whether the molecule CCC(NC(=O)Nc1nnc(C(F)(F)F)s1)(C(F)(F)F)C(F)(F)F records z-score of -0.2 or higher.
N

* * *

assay: endothelial E-selectin expression blockers – imaging, HUVEC, immunofluorescence, MLSMR starter and 10KST1 sets, primary screen (AID 487); settings: HUVEC TNFalpha-induced E-selectin immunofluorescence imaging, at 2 µM; measured here: cell number, toxicity;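 also: 100% = median nuclei count of all wells on the same plate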
Reported nuclei count values follow for various compounds
All answers are understood in %, so give the number only.

Below, each entry is followed by its recorded nuclei count result.
- CCOC(=O)CNC(=O)c1c(C)nn(-c2ccccc2)c1Cl: 127
- CC1(C)Cc2noc(N)c2C(C)(C)N1OC(=O)c1cccs1: 129
- CCOC(=O)N1CCN(S(=O)(=O)c2cc(Cl)c(OC)cc2Cl)CC1: 112

Consider the compound COC(=O)c1[nH]c2ccccc2c1NS(=O)(=O)c1ccc(OC)cc1OC and give its recorded nuclei count.
118

Consider the compound O=C(COC(=O)c1cc(S(=O)(=O)N2CCOCC2)ccc1O)NCC1CCCO1 (stereo not given) and give its recorded nuclei count.
113

Consider the compound CC1(C)O[C@@H]2C[C@H]3[C@@H]4CCC5=CC(=O)C=C[C@]5(C)[C@@]4(F)[C@@H](O)C[C@]3(C)[C@]2(C(=O)CO)O1 and give its recorded nuclei count.
116

Consider the compound O=C(O)CCC(=O)Nc1nc(-c2ccccc2)cs1 and give its recorded nuclei count.
147

Consider the compound CCn1nnnc1NCc1cccn1C and give its recorded nuclei count.
100

Consider the compound O=c1c2c3c(sc2nc2sc(C4CC4)nn12)CCCC3 and give its recorded nuclei count.
67.7

Consider the compound COCc1cc(C)c2c(N)c(C#N)sc2n1 and give its recorded nuclei count.
108

* * *

Reported inhibition values follow for various molecules
experiment: inhibitors of TNFa-induced NFkB p65 translocation, primary screen, imaging, HUVEC, MLSMR starter and 10KST1 sets (AID 438); details: HUVEC TNFa-induced p65 nuclear translocation; at 2 µM, stronger effect = higher value, 0% TNFa-plus-vehicle, 100% no-TNFa wells;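 also: compound added about 3h40 before a 20 min TNFalpha stimulation; signal is the nuclear over cytoplasmic p65 intensity ratio per well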
All answers are understood in %, so give the number only.

Below, each entry is followed by its recorded inhibition result.
- CCCC(=O)N=C1SC2CS(=O)(=O)CC2N1c1ccc(CC)cc1 (configuration not stated): 20.4
- O=C(NCC1CCCO1)C1CC(c2ccc(Cl)c(Cl)c2)=NO1 (configuration not stated): -0.7
- COc1ccccc1N1CCN(C(=O)c2oc3cc(C)c(C)cc3c2C)CC1: 1.3
- O=C(Nc1cccnc1)Nc1ccc2c(c1)OCO2: 0.8
- COc1ccc(-c2cnc(SCC(=O)Nc3ccc4c(c3)OCO4)n2Cc2ccco2)cc1: 17.8

Consider the molecule O=c1cc(-c2ccco2)oc2ccc(Cl)cc12 and give its recorded inhibition.
-0.8

Consider the molecule CCCC(C)C1C(C#N)=C(N)Oc2cc(C)oc(=O)c21 (configuration not stated) and give its recorded inhibition.
-15.6

Consider the molecule O=C(NCCO)c1scc2c1OCCO2 and give its recorded inhibition.
-12.8

Consider the molecule CC1Cc2cc(/C(O)=C3/C(=O)C(=O)N(CCN4CCOCC4)C3c3cccc(O)c3)ccc2O1 (configuration not stated) and give its recorded inhibition.
-2.7

Consider the molecule CCC(C)c1ccc(NC(=O)C2CC2)cc1 (configuration not stated) and give its recorded inhibition.
-11.6

Consider the molecule COc1ccccc1-c1noc(-c2ccco2)n1 and give its recorded inhibition.
7.2

Consider the molecule CC(C)C(=O)Nc1nnc(CCc2nnc(NC(=O)C(C)C)s2)s1 and give its recorded inhibition.
-10.1

Reference source for all entries: PubChem BioAssay
